Data origin: paper PMC5944358

- system_tested: HIV-1 YU2 gp120 (HIV-1 YU2, UniProt P35961 32-498)
- measurement_description: SPR
hey, just use label 1 if measured kon is less than 3000 M⁻¹ s⁻¹, otherwise label 0

binder	assigned_label
MVN_G43E/Q81K (natural protein) MPNFSHTCSSINYDPDSTILSAECQARDGEWLPTELRLSDHIENIDGELQFGDQNFQETCQDCHLEFGDGEQSVWLVCTCKTMDGEWKSTQILLDSQIDNNDSQLEIG	label 1
Microvirin (MVN) (natural protein) MPNFSHTCSSINYDPDSTILSAECQARDGEWLPTELRLSDHIGNIDGELQFGDQNFQETCQDCHLEFGDGEQSVWLVCTCQTMDGEWKSTQILLDSQIDNNDSQLEIG	label 0
MVN_Q81K/M83R/G85Q (natural protein) MPNFSHTCSSINYDPDSTILSAECQARDGEWLPTELRLSDHIGNIDGELQFGDQNFQETCQDCHLEFGDGEQSVWLVCTCKTRDQEWKSTQILLDSQIDNNDSQLEIG	label 0
MVN_G43E/G85Q (natural protein) MPNFSHTCSSINYDPDSTILSAECQARDGEWLPTELRLSDHIENIDGELQFGDQNFQETCQDCHLEFGDGEQSVWLVCTCQTMDQEWKSTQILLDSQIDNNDSQLEIG	label 1
MVN_G43E (natural protein) MPNFSHTCSSINYDPDSTILSAECQARDGEWLPTELRLSDHIENIDGELQFGDQNFQETCQDCHLEFGDGEQSVWLVCTCQTMDGEWKSTQILLDSQIDNNDSQLEIG	label 1
MVN_Q81K (natural protein) MPNFSHTCSSINYDPDSTILSAECQARDGEWLPTELRLSDHIGNIDGELQFGDQNFQETCQDCHLEFGDGEQSVWLVCTCKTMDGEWKSTQILLDSQIDNNDSQLEIG	label 0
